experiment: Oral bioavailability in rat at 1 mg/kg administered as suspension; type: ADME, organism-based; conditions: in vivo
value_type: bioavailability (%)
Kindly answer with a numeric value in %, unit omitted.

Task: Given `CC1=C(c2cccc(O)c2)[C@H](c2ccc(OCCN3CC(CF)C3)cc2)Oc2c(O)cccc21` , respond with its bioavailability.
Output: 30

====

experiment: in vivo; settings: rat, po, 5 mg/kg
value_type: bioavailability (%)
Kindly answer with a numeric value in %, unit omitted.

Task: Given `CC1=C(c2cccc(O)c2)[C@H](c2ccc(OCCN3CC(CF)C3)cc2)Oc2ccc(O)cc21` , respond with its bioavailability.
Output: 10

====

test: in vitro; settings: human, hepatocytes
value_type: CLhep predicted

Record excerpt, results attached:
Task: Given `CC1=C(c2cccc(O)c2)[C@H](c2ccc(OCCN3CC(CF)C3)cc2)Oc2c(O)cccc21` , respond with its CLhep predicted.
Output: 13 mL/min/kg

Task: Given `CCC1=C(c2cccc(O)c2)[C@H](c2ccc(OCCN3CC(CF)C3)cc2)Oc2ccc(O)cc21` , respond with its CLhep predicted.
Output: 15 mL/min/kg

Task: Given `CC1=C(c2cccc(O)c2)[C@H](c2ccc(OCCN3CC(CF)C3)cc2)Oc2ccc(O)cc21` , respond with its CLhep predicted.
Output: 16 mL/min/kg

Task: Given `Oc1cccc(C2=Cc3cc(O)ccc3O[C@H]2c2ccc(OCCN3CC(CF)C3)cc2)c1` , respond with its CLhep predicted.
Output: 17 mL/min/kg

Task: Given `CC1=C(c2ccc(F)cc2)[C@H](c2ccc(OCCN3CC(CF)C3)cc2)Oc2ccc(O)cc21` , respond with its CLhep predicted.
Output: 14 mL/min/kg

Now take the following compound into account.
Task: Given `CC1=C(c2ccc(F)cc2)[C@H](c2ccc(OCCN3CC(CF)C3)cc2)Oc2cc(F)c(O)cc21` , respond with its CLhep predicted.
Output: 15 mL/min/kg
